target: HMG-CoA synthase (Rattus norvegicus); construct: The livers from male Charles River CD rats (225-350 g) were homogenized in 0.25M sucrose; from tissue; host or cells: liver of male Charles River CD rats; test: HMG-CoA synthase inhibition assay; assay type: biochemical; details: enzyme from rat liver; 5 min preincubation, 30°, pH 8.0; [14C]-acetyl-CoA
Sequence (P17425 whole entry): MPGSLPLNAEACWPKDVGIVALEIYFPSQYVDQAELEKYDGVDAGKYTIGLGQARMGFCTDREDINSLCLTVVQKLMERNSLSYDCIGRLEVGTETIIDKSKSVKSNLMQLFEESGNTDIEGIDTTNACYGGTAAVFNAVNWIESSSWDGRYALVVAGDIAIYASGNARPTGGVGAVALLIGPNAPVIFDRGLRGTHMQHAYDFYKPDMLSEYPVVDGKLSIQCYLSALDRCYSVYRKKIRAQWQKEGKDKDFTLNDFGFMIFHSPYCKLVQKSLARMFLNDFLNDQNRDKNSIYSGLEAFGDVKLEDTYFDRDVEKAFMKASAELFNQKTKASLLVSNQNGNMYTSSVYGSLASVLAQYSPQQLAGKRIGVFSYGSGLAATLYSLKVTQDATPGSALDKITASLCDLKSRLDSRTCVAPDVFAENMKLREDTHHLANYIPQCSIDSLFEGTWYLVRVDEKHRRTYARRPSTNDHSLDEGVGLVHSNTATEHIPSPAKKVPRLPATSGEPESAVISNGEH
measurement-type: IC50 (µM)
Number in µM, nothing else.

Entry CC=CCCCCC=CC(=O)NC(CC1(O)C(=O)C2OC2C2OC21)C(=O)OC (stereo not shown) [Compound B] , tested on HMG-CoA synthase (Rattus norvegicus), has a reported IC50 of 0.18
